Biological target: T1, orthogonal hCD122 receptor (hoRb), hCD122 with H133D and Y134F (human, UniProt P14784 27-550)
T1 sequence: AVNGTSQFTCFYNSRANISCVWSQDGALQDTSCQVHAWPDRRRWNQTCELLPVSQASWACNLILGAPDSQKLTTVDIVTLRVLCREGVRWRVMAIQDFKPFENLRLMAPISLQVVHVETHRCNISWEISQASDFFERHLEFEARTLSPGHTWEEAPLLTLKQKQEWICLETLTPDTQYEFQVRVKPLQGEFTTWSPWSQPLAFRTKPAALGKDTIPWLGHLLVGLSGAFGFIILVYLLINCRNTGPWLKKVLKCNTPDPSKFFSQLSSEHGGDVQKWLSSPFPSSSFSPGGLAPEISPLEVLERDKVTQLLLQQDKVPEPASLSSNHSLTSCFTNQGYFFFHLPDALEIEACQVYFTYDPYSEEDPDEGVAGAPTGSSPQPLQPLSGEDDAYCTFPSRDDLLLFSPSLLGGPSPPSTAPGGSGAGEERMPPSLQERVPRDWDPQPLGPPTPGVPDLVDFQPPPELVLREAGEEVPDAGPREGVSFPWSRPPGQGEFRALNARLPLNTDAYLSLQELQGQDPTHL
Assay: cell-based or functional assay
Kindly state 3F8 Ortho Proliferation Signal 1:2 for each of the entries shown.
Give bare numbers, in cts/min.

ΔG27, SQVLKA (ligand) APTSSSTKKTQLQLSQLLVLLKAILNINNYKNPKLTRMLTFKFYMPKKATELKHLQCLEEELKPLEEVLNLAQSKNFHLRPRDLISNINVIVLELKGSETTFMCEYADETATIVEFLNRWITFCQSIISTLT ... 28400
SQVLGA (ligand) APTSSSTKKTQLQLSQLLVLLGAILNGINNYKNPKLTRMLTFKFYMPKKATELKHLQCLEEELKPLEEVLNLAQSKNFHLRPRDLISNINVIVLELKGSETTFMCEYADETATIVEFLNRWITFCQSIISTLT ... 18000
M39L, SQVLKA (ligand) APTSSSTKKTQLQLSQLLVLLKAILNGINNYKNPKLTRLLTFKFYMPKKATELKHLQCLEEELKPLEEVLNLAQSKNFHLRPRDLISNINVIVLELKGSETTFMCEYADETATIVEFLNRWITFCQSIISTLT ... 31200

Below is a list of binders. For each, state its recorded 3F8 Ortho Proliferation Signal 1:2.
1. SQVLKL (ligand) APTSSSTKKTQLQLSQLLVLLKLILNGINNYKNPKLTRMLTFKFYMPKKATELKHLQCLEEELKPLEEVLNLAQSKNFHLRPRDLISNINVIVLELKGSETTFMCEYADETATIVEFLNRWITFCQSIISTLT
2. T3A, SQVLKA (ligand) APASSSTKKTQLQLSQLLVLLKAILNGINNYKNPKLTRMLTFKFYMPKKATELKHLQCLEEELKPLEEVLNLAQSKNFHLRPRDLISNINVIVLELKGSETTFMCEYADETATIVEFLNRWITFCQSIISTLT
3. K97Q, SQVLKA (ligand) APTSSSTKKTQLQLSQLLVLLKAILNGINNYKNPKLTRMLTFKFYMPKKATELKHLQCLEEELKPLEEVLNLAQSKNFHLRPRDLISNINVIVLELQGSETTFMCEYADETATIVEFLNRWITFCQSIISTLT
4. Q74S, SQVLKA (ligand) APTSSSTKKTQLQLSQLLVLLKAILNGINNYKNPKLTRMLTFKFYMPKKATELKHLQCLEEELKPLEEVLNLASSKNFHLRPRDLISNINVIVLELKGSETTFMCEYADETATIVEFLNRWITFCQSIISTLT

Response:
1: 40200; 2: 41400; 3: 35600; 4: 36400
